Data provenance: ChEMBL document CHEMBL5226342

biological target: hERG (KCNH2) (Homo sapiens, UniProt Q12809); assay: Inhibition of human ERG at 10 uM; assay type: toxicity
Sequence (Q12809 whole entry): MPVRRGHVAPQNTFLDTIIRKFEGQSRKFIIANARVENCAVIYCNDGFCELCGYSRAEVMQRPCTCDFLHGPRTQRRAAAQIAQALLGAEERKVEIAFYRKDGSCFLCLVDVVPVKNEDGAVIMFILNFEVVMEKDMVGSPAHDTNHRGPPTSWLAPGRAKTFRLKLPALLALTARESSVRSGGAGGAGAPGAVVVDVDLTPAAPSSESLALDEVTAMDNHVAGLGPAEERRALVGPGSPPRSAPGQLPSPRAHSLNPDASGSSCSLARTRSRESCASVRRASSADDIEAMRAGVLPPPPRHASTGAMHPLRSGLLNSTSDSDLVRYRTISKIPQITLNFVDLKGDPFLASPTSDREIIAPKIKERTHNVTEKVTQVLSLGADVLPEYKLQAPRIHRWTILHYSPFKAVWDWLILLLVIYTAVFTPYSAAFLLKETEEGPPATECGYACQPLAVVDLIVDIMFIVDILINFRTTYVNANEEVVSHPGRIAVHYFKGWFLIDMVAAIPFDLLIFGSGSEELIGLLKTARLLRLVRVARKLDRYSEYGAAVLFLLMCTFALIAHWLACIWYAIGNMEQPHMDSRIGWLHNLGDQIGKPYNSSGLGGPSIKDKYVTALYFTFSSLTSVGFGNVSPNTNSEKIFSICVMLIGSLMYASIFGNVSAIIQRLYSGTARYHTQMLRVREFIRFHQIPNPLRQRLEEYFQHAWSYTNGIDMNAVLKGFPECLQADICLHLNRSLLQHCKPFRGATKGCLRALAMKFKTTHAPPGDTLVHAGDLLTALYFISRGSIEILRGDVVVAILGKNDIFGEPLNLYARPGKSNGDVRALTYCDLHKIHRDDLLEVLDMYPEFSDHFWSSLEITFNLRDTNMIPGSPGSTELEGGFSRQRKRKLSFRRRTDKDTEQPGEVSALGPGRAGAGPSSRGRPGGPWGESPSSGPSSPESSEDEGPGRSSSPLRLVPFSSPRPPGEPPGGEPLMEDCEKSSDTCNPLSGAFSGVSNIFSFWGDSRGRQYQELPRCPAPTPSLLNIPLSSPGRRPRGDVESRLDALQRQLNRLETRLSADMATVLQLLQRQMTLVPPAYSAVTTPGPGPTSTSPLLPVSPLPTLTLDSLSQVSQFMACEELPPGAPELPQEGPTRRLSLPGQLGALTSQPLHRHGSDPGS
PARAMETER_MEASURED: inhibition at 10 µM

inhibition at 10 µM reading for O=C(c1ccc2c(ccn2-c2ccc(F)cc2)c1)N1CC(N2CCN(c3ncccn3)CC2)C1 : < 50%

---

experiment: Metabolic stability of the compound in iv dosed Sprague-Dawley rat plasma assessed as parent compound remaining measured after 60 mins by radio-HPLC analysis; format: ADME, organism-based; conditions: read-out: Stability
PARAMETER_MEASURED: remaining at 1 h (%)
One number for each entry, in %.

[[record]]
smiles_entry = "O=C(c1ccc2c(ccn2-c2ccc([18F])cc2)c1)N1CC(N2CCN(c3ncccn3)CC2)C1"
experimental_result = 40


Turning to the following compound.
remaining at 1 h reading for O=C(c1ccc2c(ccn2-c2ccc([18F])cc2)c1)N1CC(N2CCN(C(=O)c3nccs3)CC2)C1 : 56
